test.name: Cmax in mice at 24 umol/kg i.p. administration
Type: ADME, organism-based
Set-up: dose 24 umol/kg, route intraperitoneal
test.parameters: mouse, in vivo, ip
observable: Cmax (nM)

- CC(C)(C)c1cnc(CSc2cnc(NC(=O)C3CCN(CCO)CC3)s2)o1: 1100

###

Species: Mus musculus
observable: Binding (%)

• CN1CCC(C(=O)Nc2ncc(SCc3ncc(C(C)(C)C)o3)s2)CC1 = 75
• CC(C)(C)c1cnc(CSc2cnc(NC(=O)[C@H]3CC[C@@H](N)CC3)s2)o1 = 68
• CC(=O)Nc1ncc(SCc2ncc(C(C)(C)C)o2)s1 = 83
• CC(C)(C)c1cnc(CSc2cnc(NC(=O)C3CCN(S(C)(=O)=O)CC3)s2)o1 = 84
• CC(C)(C)c1cnc(CSc2cnc(NC(=O)C3CCN(CCO)CC3)s2)o1 = 75

###

test.name: Cmax in mice at 26 umol/kg i.p. administration
Assay type: ADME, organism-based
Set-up: dose 26 umol/kg, route intraperitoneal
test.parameters: mouse, in vivo, ip
observable: Cmax

* CC(C)(C)c1cnc(CSc2cnc(NC(=O)C3CCCNC3)s2)o1 (stereo unspecified) | 3.5 µM

###

test.name: in vivo
test.parameters: mouse, iv, 23 umol/kg
Description: Cmax in mice at 23 umol/kg i.v. administration
observable: Cmax (µM)

• CC(C)(C)c1cnc(CSc2cnc(NC(=O)[C@H]3CC[C@@H](N)CC3)s2)o1 = 13.6

###

Species: Mus musculus
observable: Binding

• CC(C)(C)c1cnc(CSc2cnc(NC(=O)[C@H]3CC[C@H](N)CC3)s2)o1 = 86%
• CC(C)(C)c1cnc(CSc2cnc(NC(=O)Cc3ccc(CNC(CO)CO)cc3)s2)o1 = 79%
• CC(C)(C)OC(=O)N1CCC(C(=O)Nc2ncc(SCc3ncc(C(C)(C)C)o3)s2)CC1 = 99%
• CC(C)(C)c1cnc(CSc2cnc(NC(=O)C3CCCNC3)s2)o1 (centres undefined) = 82%

###

test.name: Cmax in mice at 25 umol/kg i.p. administration
Assay type: ADME, organism-based
Design: dose 25 umol/kg, route intraperitoneal
test.parameters: mouse, in vivo, ip
observable: Cmax (nM)

- CN1CCC(C(=O)Nc2ncc(SCc3ncc(C(C)(C)C)o3)s2)CC1: 1100
